Provenance of the data: patent US20220162331A1

Biological target: T1, recombinant human CD73 extracellular domain (Trp27-Lys546) with C-terminal 6-histidine tag (human, UniProt P21589 27-547)
T1 construct: also called hCD73; hCD73-cHis
T1 sequence: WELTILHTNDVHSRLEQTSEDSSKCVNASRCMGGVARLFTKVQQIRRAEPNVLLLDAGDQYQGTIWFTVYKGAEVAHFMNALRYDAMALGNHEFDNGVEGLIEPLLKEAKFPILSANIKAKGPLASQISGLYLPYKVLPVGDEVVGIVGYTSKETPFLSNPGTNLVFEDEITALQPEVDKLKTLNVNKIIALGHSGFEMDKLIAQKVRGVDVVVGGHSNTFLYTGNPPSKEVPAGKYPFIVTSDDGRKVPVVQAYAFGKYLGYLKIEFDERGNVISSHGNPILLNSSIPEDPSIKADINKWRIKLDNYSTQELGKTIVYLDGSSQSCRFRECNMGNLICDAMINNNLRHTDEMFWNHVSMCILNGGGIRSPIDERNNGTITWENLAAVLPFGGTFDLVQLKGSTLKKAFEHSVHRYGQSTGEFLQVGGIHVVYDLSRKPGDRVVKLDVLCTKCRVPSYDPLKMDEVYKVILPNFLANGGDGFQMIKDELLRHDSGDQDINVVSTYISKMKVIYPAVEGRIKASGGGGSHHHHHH
Assay: SPR, Biacore T200, antibody captured on Protein A chip, hCD73 ECD as analyte, 1:1 Langmuir
MEASUREMENT_TYPE: koff (s⁻¹)
All answers are understood in s⁻¹, so give the number only.

# BINDER, MEASUREMENT_TYPE, UNITS_SYMBOL, QUANTITATIVE_RESULT
measured = [
    ("humanized anti-CD73 antibody 6G8 VH-v8/VK-v4 (antibody, V domains shown, Human IgG1 CH1-CH3 constant region and kappa constant region; also called hu6G8 VHv8 + hu6G8 VkV4) VH: QVTLRESGPALVKPTQTLTLTCTFSGFSLSTSGMGVGWIRQPPGKALEWLAHIWWDEDKYYNPSLKSRLTISKDTSKNQVVLTMTNMDPVDTATYYCARRERWAWFAYWGQGTLVTVSS VL: EIVMTQSPATLSVSPGERATLSCRASQNVFTNVAWYQQKPGQAPRVLIYSASYRYSGIPARFSGSGSGTEFTLTISSLQSEDFAVYFCQQYNSYPTFGQGTKLEIK", "koff", "s⁻¹", "8.48e-05"),
    ("humanized anti-CD73 antibody 22C12 VH-v10/VL-v2 (antibody, V domains shown, Human IgG1 CH1-CH3 constant region and kappa constant region; also called hu22C12 VHv10 (printed hu22C12 Vilv10) + hu22C12 Vkv2) VH: QVQLVQSGAEVKKPGASVKVSCKASGYTFTGYWIQWVRQAPGQGLEWMGAIYPGDEDTRYTQKFQGRVTMTADTSISTAYMELSRLRSDDTAVYYCARGNWDDWDFDVWGQGTTVTVSS VL: DIQMTQSPSSLSASVGDRVTITCRASQDISNYLNWYQQKPGKAPKLLIHYTSRLHSGVPSRFSGSGSGTDYTLTISSLQPEDFATYYCQQGDTLPWTFGQGTKVEIK", "koff", "s⁻¹", 0.000225),
]

Now examine the next entry.
**Q:** Fill blank: measured koff of the binder humanized anti-CD73 antibody 22C12 VH-v9/Vk-v2 (antibody, V domains shown, Human IgG1 CH1-CH3 constant region and kappa constant region; also called hu22C12 VHv9 (printed hu22C12V11v9) + hu22C12 Vkv2) VH: QVQLVQSGAEVKKPGASVKVSCKASGYTFTGYWIQWVRQAPGQGLEWMGAIYPGDSDTRYTQKFQGRVTMTADTSISTAYMELSRLRSDDTAVYYCARGNWDDWDFDVWGQGTTVTVSS VL: DIQMTQSPSSLSASVGDRVTITCRASQDISNYLNWYQQKPGKAPKLLIHYTSRLHSGVPSRFSGSGSGTDYTLTISSLQPEDFATYYCQQGDTLPWTFGQGTKVEIK is ____.
**A:** 0.000165
